experiment: In vivo BBB permeability, plasma and brain distribution by LC-MS/MS; parameters: species or system C57 mice; details: both, C57, mouse, in vivo, ip, 10 mg/kg
measurement.label: Tmax (h)
One number for each entry, in h.

Identify measured Tmax corresponding to `O=C(NCCCCC(c1ccc(F)cc1)c1ccc(F)cc1)Nc1ccc(Cl)cc1`
1

Ref: paper PMC7744370
